Target: T1, mouse MAdCAM expressed on cells (mouse, UniProt Q61826 22-405)
T1 construct: whole, on cells
T1 sequence (looked up): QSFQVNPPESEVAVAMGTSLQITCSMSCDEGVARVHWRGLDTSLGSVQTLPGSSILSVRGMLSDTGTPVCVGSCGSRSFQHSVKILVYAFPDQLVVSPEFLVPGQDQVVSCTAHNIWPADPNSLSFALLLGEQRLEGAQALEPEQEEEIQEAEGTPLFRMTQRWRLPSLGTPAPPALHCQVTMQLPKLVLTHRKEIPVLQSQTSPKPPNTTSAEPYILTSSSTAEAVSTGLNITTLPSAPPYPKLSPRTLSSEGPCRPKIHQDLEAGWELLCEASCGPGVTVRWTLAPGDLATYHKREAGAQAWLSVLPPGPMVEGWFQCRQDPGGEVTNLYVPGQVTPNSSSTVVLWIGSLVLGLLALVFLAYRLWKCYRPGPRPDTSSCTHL
Run description: cell binding
Property: binding result

Binder	Reported
MAdCAM Antibody Table 2 clone 75 (antibody, V domains shown, IgG format) VH: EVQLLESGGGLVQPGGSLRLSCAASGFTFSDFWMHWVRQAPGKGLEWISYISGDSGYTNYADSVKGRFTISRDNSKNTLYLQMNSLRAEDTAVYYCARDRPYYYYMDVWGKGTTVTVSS VL: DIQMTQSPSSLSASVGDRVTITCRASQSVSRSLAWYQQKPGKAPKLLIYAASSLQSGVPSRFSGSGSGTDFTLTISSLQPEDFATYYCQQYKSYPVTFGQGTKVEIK	binds
